Target: T1, FZD9 cysteine-rich domain (CRD), MYC-tagged and GPI-anchored on CHO cells (human, UniProt O00144 35-161, GPI anchor)
T1 construct: also called FZD9 CRD; CHO-myc-FZDGPI; not shown: MYC tag and GPI anchor signal
T1 sequence: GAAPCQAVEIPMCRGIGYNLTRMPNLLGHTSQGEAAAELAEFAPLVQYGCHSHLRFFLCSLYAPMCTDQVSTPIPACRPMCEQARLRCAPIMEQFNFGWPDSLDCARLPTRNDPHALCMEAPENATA
Test: flow cytometry, CHO-CRD cells;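 also: flow cytometry of Fab binding to CHO cells overexpressing a Frizzled CRD, with binding defined as median fluorescence over twice that of CHO cells lacking any Frizzled CRD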
assayReadout: median fluorescence
Answer field: number only, no words.

Request the reported median fluorescence associated with Fab-2907 (Fab, V domains shown, Fab; also called Fv-2907) VH: EVQLVESGGGLVQPGGSLRLSCAASGFNIYSSYMHWVRQAPGKGLEWVASISSYSGSTYYADSVKGRFTISADTSKNTAYLQMNSLRAEDTAVYYCARSSWGAYIVSYGFDYWGQGTLVTVSS VL: DIQMTQSPSSLSASVGDRVTITCRASQSVSSAVAWYQQKPGKAPKLLIYSASSLYSGVPSRFSGSRSGTDFTLTISSLQPEDFATYYCQQVGYWWGLITFGQGTKVEIK
2.86

Others:
What value of measured median fluorescence is listed for Fab-2912 (Fab, V domains shown, Fab; also called Fv-2912) VH: EVQLVESGGGLVQPGGSLRLSCAASGFNISYSYIHWVRQAPGKGLEWVASISSSSGYTSYADSVKGRFTISADTSKNTAYLQMNSLRAEDTAVYYCARTVRGSKKPYFSGWAMDYWGQGTLVTVSS VL: DIQMTQSPSSLSASVGDRVTITCRASQSVSSAVAWYQQKPGKAPKLLIYSASSLYSGVPSRFSGSRSGTDFTLTISSLQPEDFATYYCQQFYFPYLITFGQGTKVEIK ?
4.45

# lookup: median fluorescence of Fab-2927 (Fab, V domains shown, Fab; also called Fv-2927) VH: EVQLVESGGGLVQPGGSLRLSCAASGFNIYYSSMHWVRQAPGKGLEWVASIYPSYGYTSYADSVKGRFTISADTSKNTAYLQMNSLRAEDTAVYYCARYGYYGFDYWGQGTLVTVSS VL: DIQMTQSPSSLSASVGDRVTITCRASQSVSSAVAWYQQKPGKAPKLLIYSASSLYSGVPSRFSGSRSGTDFTLTISSLQPEDFATYYCQQWGSHGYLITFGQGTKVEIK
3.85
